# TESTED TARGET: IKK-complex (Homo sapiens, UniProt O14920+O15111+Q9Y6K9)
# Construct: IKK-complex was immunoprecipitated with anti-NEMO-antibody; endogenous in cells; host or cells: HeLa
# Sequence (O14920 whole entry): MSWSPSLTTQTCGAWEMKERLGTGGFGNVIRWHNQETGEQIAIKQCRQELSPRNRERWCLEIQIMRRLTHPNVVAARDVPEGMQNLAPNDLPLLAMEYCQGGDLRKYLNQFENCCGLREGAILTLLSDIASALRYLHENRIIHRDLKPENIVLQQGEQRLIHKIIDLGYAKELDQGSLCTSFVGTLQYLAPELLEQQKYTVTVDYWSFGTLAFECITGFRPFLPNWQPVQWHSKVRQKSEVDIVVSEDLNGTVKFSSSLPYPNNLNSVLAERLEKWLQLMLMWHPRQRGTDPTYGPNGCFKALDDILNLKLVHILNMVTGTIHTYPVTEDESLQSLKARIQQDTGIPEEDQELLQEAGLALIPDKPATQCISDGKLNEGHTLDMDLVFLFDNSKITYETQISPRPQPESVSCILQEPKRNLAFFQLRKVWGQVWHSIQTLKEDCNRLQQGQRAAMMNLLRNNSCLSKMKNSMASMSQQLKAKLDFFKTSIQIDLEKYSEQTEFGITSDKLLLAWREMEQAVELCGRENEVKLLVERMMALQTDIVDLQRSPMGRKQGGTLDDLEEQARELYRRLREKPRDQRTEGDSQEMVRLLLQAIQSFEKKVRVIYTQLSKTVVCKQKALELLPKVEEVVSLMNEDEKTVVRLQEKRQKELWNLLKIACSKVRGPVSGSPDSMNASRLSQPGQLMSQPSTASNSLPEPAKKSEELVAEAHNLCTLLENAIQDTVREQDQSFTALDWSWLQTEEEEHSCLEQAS
# Sequence (O15111 whole entry): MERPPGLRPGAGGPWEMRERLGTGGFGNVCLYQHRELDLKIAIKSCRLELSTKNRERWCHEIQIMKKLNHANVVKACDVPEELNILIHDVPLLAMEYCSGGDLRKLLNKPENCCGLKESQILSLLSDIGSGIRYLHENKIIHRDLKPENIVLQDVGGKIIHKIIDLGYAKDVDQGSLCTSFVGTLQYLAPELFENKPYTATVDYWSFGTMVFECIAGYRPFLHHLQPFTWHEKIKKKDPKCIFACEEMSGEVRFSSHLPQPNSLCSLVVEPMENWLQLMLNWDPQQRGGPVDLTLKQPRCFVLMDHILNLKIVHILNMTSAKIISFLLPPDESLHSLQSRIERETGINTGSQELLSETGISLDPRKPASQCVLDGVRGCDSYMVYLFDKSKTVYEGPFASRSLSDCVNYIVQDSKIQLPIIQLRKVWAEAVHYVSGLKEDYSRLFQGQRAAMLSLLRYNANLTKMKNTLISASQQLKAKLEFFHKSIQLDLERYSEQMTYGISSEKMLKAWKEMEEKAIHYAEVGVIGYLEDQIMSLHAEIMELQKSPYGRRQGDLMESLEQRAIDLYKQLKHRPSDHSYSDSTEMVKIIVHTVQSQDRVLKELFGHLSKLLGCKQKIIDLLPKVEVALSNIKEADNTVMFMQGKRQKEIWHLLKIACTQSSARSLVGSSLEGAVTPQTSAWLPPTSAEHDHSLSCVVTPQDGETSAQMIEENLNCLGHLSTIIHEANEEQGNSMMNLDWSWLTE
# Sequence (Q9Y6K9 whole entry): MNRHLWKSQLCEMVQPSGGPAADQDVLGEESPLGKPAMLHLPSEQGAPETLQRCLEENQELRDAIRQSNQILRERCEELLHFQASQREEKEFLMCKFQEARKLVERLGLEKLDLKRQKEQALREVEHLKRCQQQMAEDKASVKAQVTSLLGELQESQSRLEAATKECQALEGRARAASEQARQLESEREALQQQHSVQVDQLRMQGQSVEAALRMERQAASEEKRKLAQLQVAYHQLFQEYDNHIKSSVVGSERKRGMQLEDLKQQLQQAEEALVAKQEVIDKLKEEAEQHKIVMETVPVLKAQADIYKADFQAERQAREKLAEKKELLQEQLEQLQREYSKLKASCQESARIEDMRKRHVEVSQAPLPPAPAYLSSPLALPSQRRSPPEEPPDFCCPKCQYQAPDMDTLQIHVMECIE
# METHOD: Cellular IKK kinase assay: HeLa cells treated with compound, TNF alpha stimulation, IKK-complex immunoprecipitated with anti-NEMO-antibody, I kappaB peptide phosphorylation by alpha screen
# Type: cell-based
# TEST CONDITIONS: HeLa cells, TNF alpha 20 ng/ml, alpha screen, n=4; read-out: IC50 for inhibition of IKK activity (phosphorylation of substrate peptide for I KappaB)
pIC50: −log10 of the molar value.
MEASURED QUANTITY: pIC50

Briefly, pIC50 measured for CCOC(=O)C1=C(C)N=c2s/c(=C/c3ccc(-c4cccc(C(=O)O)c4)o3)c(=O)n2C1c1ccc(Cl)cc1 (stereo not shown) : ~6.07

---

# Tested on: ICAM expression in HUVEC cells
# METHOD: ICAM expression in HUVEC cells by FACS analysis
# Type: cell-based
# TEST CONDITIONS: Homo sapiens, after TNF alpha stimulation (1 ng/ml), read-out: IC50 for inhibition of ICAM expression
MEASURED QUANTITY: IC50 (µM)
Numbers only, in µM.

So the reported IC50 for O=C(NN=Cc1ccccc1O)c1ccc([N+](=O)[O-])o1 , on ICAM expression in HUVEC cells, turned out to be 4.5

---

# TESTED TARGET: IKK-complex (Homo sapiens, UniProt O14920+O15111+Q9Y6K9)
# Construct: IKK-complex was immunoprecipitated with anti-NEMO-antibody; endogenous in cells; host or cells: HeLa
# METHOD: Cellular IKK kinase assay: HeLa cells treated with compound, TNF alpha stimulation, IKK-complex immunoprecipitated with anti-NEMO-antibody, I kappaB peptide phosphorylation by alpha screen
# Assay type: cell-based
# TEST CONDITIONS: HeLa cells, compound 1 h, TNF alpha 20 ng/ml, alpha screen; read-out: IC50 for inhibition of IKK-activity (I kappaB peptide phosphorylation)
MEASURED QUANTITY: IC50

Entry under test: CCC(=O)C1=C(C)N=c2s/c(=C/c3cc(C)c(OCc4ccccc4Cl)c(I)c3)c(=O)n2C1c1ccc2c(c1)OCO2 (stereo not shown) . Its IC50 was 10 to 100 µM
